Below: a set of entries, each annotated with reported DC50.
target: STAT6 (Homo sapiens, UniProt P42226); construct: endogenous in cells; host or cells: MOLM-16, KU-812, SKNO1, MB231, L1236; assay: Immunoblotting (Western blot) analysis of STAT6 degradation efficiency of degraders in treated cells; format: cell-based; details: MOLM-16 cells, class symbols, read-out: DC50 S6 MOLM-16
Sequence (P42226 whole entry): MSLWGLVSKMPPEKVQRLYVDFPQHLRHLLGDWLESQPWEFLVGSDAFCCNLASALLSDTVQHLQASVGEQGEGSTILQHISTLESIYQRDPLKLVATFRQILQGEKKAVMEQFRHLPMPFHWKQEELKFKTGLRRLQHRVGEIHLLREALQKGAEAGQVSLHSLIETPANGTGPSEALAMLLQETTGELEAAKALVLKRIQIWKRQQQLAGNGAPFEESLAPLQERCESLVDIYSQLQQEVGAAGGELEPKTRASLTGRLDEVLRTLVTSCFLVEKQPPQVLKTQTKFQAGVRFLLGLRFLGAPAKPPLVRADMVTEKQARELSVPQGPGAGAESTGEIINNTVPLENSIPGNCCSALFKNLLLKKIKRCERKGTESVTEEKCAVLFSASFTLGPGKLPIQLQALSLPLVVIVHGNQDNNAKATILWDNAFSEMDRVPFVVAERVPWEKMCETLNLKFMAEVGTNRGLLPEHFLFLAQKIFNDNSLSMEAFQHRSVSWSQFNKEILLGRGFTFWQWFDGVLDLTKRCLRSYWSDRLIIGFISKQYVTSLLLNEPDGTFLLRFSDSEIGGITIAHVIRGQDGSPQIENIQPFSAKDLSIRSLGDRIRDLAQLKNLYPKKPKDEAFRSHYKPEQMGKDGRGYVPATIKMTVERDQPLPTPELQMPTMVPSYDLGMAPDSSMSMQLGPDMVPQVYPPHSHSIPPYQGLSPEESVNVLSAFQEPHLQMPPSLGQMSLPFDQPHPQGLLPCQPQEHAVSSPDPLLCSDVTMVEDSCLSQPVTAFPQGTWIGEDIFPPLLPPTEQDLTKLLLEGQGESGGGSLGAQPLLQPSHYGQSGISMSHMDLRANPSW

Worked set:
COMPOUND	TARGET ENTITY	READOUT LABEL	OBSERVED RESULT
CC(C)(C)[C@H](NC(=O)c1cc2cc(C(F)(F)P(=O)(O)O)ccc2s1)C(=O)N1C[C@@H](OCCCCCCCCCC#Cc2cccc3c2CN(C2CCC(=O)NC2=O)C3=O)C[C@H]1C(=O)N1CCO[C@H](c2ccccc2)C1 (some centres unmarked)	STAT6 (Homo sapiens, UniProt P42226)	DC50	0.1 to 1 µM
CC(C)(C)[C@H](NC(=O)c1cc2cc(C(F)(F)P(=O)(O)O)ccc2s1)C(=O)N1C[C@@H](OCC(=O)NCCCCC#Cc2ccc3c(c2)C(=O)N(C2CCC(=O)NC2=O)C3=O)C[C@H]1C(=O)N1CCC[C@H](c2ccccc2)C1 (some centres unmarked)	STAT6 (Homo sapiens, UniProt P42226)	DC50	> 10 µM
CC(C)(C)[C@H](NC(=O)c1cc2cc(C(F)(F)P(=O)(O)O)ccc2s1)C(=O)N1C[C@@H](OCCCCCCCC#Cc2cccc3c2CN(C2CCC(=O)NC2=O)C3=O)C[C@H]1C(=O)N1CCO[C@H](c2ccccc2)C1 (some centres unmarked)	STAT6 (Homo sapiens, UniProt P42226)	DC50	< 0.1 µM
CC(C)(C)[C@H](NC(=O)c1cc2cc(C(F)(F)P(=O)(O)O)ccc2s1)C(=O)N1CCN(C(=O)CC(=O)NCCCCCCCCC#Cc2ccc3c(c2)C(=O)N(C2CCC(=O)NC2=O)C3=O)C[C@H]1C(=O)N1CCC[C@H](c2ccccc2)C1 (some centres unmarked)	STAT6 (Homo sapiens, UniProt P42226)	DC50	> 10 µM
CC(C)(C)[C@H](NC(=O)c1cc2cc(C(F)(F)P(=O)(O)O)ccc2s1)C(=O)N1C[C@@H](NC(=O)CCCCCC#Cc2ccc3c(c2)CN(C2CCC(=O)NC2=O)C3=O)C[C@H]1C(=O)N1CCO[C@H](c2ccccc2)C1 (some centres unmarked)	STAT6 (Homo sapiens, UniProt P42226)	DC50	> 10 µM

Ask | Record "Cc1ncsc1-c1ccc([C@H](C)NC(=O)[C@@H]2C[C@@H](O)CN2C(=O)[C@@H](NC(=O)CCNC(=O)CO[C@H]2C[C@@H](C(=O)N3CCO[C@H](c4ccccc4)C3)N(C(=O)[C@@H](NC(=O)c3cc4cc(C(F)(F)P(=O)(O)O)ccc4s3)C(C)(C)C)C2)C(C)(C)C)cc1" : what is its DC50 with STAT6 (Homo sapiens, UniProt P42226)?
Reply | > 10 µM

Ask | # returns recorded DC50 (system: STAT6 (Homo sapiens, UniProt P42226)) for CC(C)(C)[C@H](NC(=O)c1cc2cc(C(F)(F)P(=O)(O)O)ccc2s1)C(=O)N1CCC[C@H]1C(=O)N(CCC(=O)NCCCC#Cc1cccc2c1CN(C1CCC(=O)NC1=O)C2=O)c1ccc(Br)cc1 (some centres unmarked)
Reply | > 10 µM

Ask | Record lookup: for STAT6 (Homo sapiens, UniProt P42226), what DC50 belongs to CC(C)(C)[C@H](NC(=O)c1cc2cc(C(F)(F)P(=O)(O)O)ccc2s1)C(=O)N1Cc2cc(OCC(=O)NCCC#Cc3ccc4c(c3)C(=O)N(C3CCC(=O)NC3=O)C4=O)ccc2C[C@H]1C(=O)N1CCO[C@H](c2ccccc2)C1 (some centres unmarked) ?
Reply | > 10 µM
